Form field: % Alum bound in Histidine buffer (one value per entry).
Assay: Binding to alum in 10 mM histidine buffer, LC-MS/MS of supernatant
Assay type: physicochemical
Details: 10 mM histidine buffer pH 6.8; final compound 0.1 mg/mL; 37° C. for 5 hours; 100% minus % unbound
quantity-kind: % Alum bound in Histidine buffer (%)

Cc1cc(OCCOCCOCCC(F)(F)P(=O)(O)O)ccc1CCc1cnc2c(N)nc3cc(CCC(=O)O)ccc3c2c1 [Compound 17] : 96.2
Cc1cc(OCCOCCC(F)(F)P(=O)(O)O)ccc1CCc1cnc2c(N)nc3cc(CCC(=O)O)ccc3c2c1 [Compound 19] : 96.0
Cc1cc(OCCOCCOCCP(=O)(O)O)ccc1CCc1cnc2c(N)nc3cc(CCC(=O)O)ccc3c2c1 [Compound 20] : 97.0
Cc1cc(OCCCC(F)(F)P(=O)(O)O)ccc1CCc1cnc2c(N)nc3cc(CCC(=O)O)ccc3c2c1 [Compound 16] : 94.5
Cc1ccc2c(c1)nc(N)c1ncc(CCc3ccc(OCCOCCOCCC(F)(F)P(=O)(O)O)cc3C)cc12 [Compound 6] : 98.2

Origin of values: patent US9045470B2
